Catalogue of apparent KD of K4 kissing-loop reporter values
test system: K4 kissing-loop RNA reporter; assay: apparent KD of K4 kissing-loop reporter; higher = weaker reporter binding; details: Eterna round: R107; input ligand: theophylline 20 uM;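 further: bound reporter read as fluorescence of individual clusters on recovered sequencing chips by microscopy, with normalized cluster intensities fitted with a binding model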
property: apparent KD of K4 kissing-loop reporter (nM)

[[record]]
polymersequence = "UGAUCUCGGCAGUGAUGUUGCAUAUGAGAAGGAGCGCACGAAAGUGCAGGUAGGUCGCUCAGCCAAAGAAAAUAAAACGAGAUCU [#SwitchBubble #K4Early]"
systemundertest = "K4 kissing-loop RNA reporter"
val = 124

[[record]]
polymersequence = "AGUGUUGUAUGGCGGUUUGUCACUUAGGAUCAGGAUAUAUAAACAAAUAGAAGGGAUGGCGGAGUGAUGUUCCGCCGGCCGCCAU [FMN A Exl V7]"
systemundertest = "K4 kissing-loop RNA reporter"
val = 126

[[record]]
polymersequence = "AACCGUGUGGCGGCCGCCACUAGUCUCCAGUGAUGUUGGAGAGACCACGUAAGUGGUCUCCAACAUAGGACCGGGCCAUAUGGAA [Same State - Tryptophan B (Freestyle 26)]"
systemundertest = "K4 kissing-loop RNA reporter"
val = 132

[[record]]
polymersequence = "UGAUAGGACAGAAGGAGCGGUAGUGAUGUUGCCAAAAGUAUAAGGUGUCAAAAGACACCCUACCAGGUAGGUCGCUGUCCUAUCU"
systemundertest = "K4 kissing-loop RNA reporter"
val = 541

[[record]]
polymersequence = "UGUCAUUGGUCUGAUACCAGUUGAUGACGAAUACGUCAACUGGAGUGAUGUUCCAAUAACAACCCUUGGCAGCAGACCGAUGACU [MAT - Same State Theophlline B - Mod of Eli - D3]"
systemundertest = "K4 kissing-loop RNA reporter"
val = 953

[[record]]
polymersequence = "UAUGUACACGGGUAGUGAUACAUCGAGGAAGGAGCGUGCGCAGGCACAGGUAGGUCGCCUCAGCGCACGAGUGAUGUUCGUGGGC [Veti]"
systemundertest = "K4 kissing-loop RNA reporter"
val = 380


FYI, the data here is from the supplement of paper PMC9170038.
